- targetUnderTest: PRMT1 (Homo sapiens)
- Sequence (Q99873 whole entry): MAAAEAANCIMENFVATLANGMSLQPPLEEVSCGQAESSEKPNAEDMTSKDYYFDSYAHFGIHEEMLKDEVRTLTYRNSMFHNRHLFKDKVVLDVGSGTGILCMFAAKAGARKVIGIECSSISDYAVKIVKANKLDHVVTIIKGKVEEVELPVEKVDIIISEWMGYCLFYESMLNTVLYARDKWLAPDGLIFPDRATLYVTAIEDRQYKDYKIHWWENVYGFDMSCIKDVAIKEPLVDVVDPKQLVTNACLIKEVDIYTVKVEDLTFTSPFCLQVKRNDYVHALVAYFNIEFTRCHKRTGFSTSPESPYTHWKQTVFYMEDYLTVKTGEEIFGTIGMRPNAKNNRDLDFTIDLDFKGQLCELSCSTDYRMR
- protocolText: PRMT1 RKO Cellular Target Engagement Assay (In-Cell Western, asymmetric di-methyl arginine)
- Assay type: cell-based
- conditionDescription: RKO cells, 48 hr compound incubation; read-out: RKO IC50 (PRMT-1 Target Engagement)
Would you mind sorting the entries by IC50 according to these classes? low bracket (below 300 nM), middle bracket (300 nM to below 400 nM), high bracket (400 nM or more)

Band for CNCCN(C)Cc1nn2c(c1C1CCC(COC)(COC)CC1)CN(C(=O)C1(C)CCCO1)CC2 (stereo not shown) ?
low bracket

Band for `COCC1(COC)CCC(c2c(CN(C)CCN)nn3c2CN(C(=O)C2CCC2)CC3)CC1` ?
high bracket

Band for `COCC1(COC)CCC(c2c(CN(C)CCN)nn3c2CN(C(=O)C24CC(C2)C4)CC3)CC1` ?
low bracket

Band for CNCCN(C)Cc1nn2c(c1C1CCC(COC)(COC)CC1)CN(C(=O)C1CC(OC)C1)CC2 (stereo not shown) ?
middle bracket

Band for `CNCCN(C)Cc1nn2c(c1C1CCC(COC)(COC)CC1)CN(C(=O)C1(C#N)CCC1)CC2` ?
low bracket

Band for CNCCN(C)Cc1nn2c(c1C1CCC(COC)(COC)CC1)CN(C(=O)C1CC(C)(C)C1)CC2 [Example 77] ?
low bracket

Band for `CNCCN(C)Cc1nn2c(c1C1CCC(COC)(COC)CC1)CN(C(=O)C1(C(C)(F)F)COC1)CC2` ?
middle bracket

Band for `COCC1(COC)CCC(c2c(CN(C)CCN)nn3c2CN(C(=O)C2CC2)CC3)CC1` ?
middle bracket

Band for `COCC1(COC)CCC(c2c(CN(C)CCN)nn3c2CN(C(=O)C2CC(F)(F)C2)CC3)CC1` ?
high bracket

Band for `CNCCN(C)Cc1nn2c(c1C1CCC(COC)(COC)CC1)CN(C(=O)C(C)(C)C#N)CC2` ?
low bracket

Band for `CCOCC1(COCC)CCC(c2c(CN(C)CCNC)nn3c2CN(C(=O)CC(F)(F)F)CC3)CC1` ?
low bracket

Band for `CNCCN(C)Cc1nn2c(c1C1CCC(COC)(COC)CC1)CN(C(=O)C1CC(F)(F)C1)CC2` ?
high bracket

Band for `CNCCN(C)Cc1nn2c(c1C1CCC(COC)(COC)CC1)CN(C(=O)C1(C)CCC1)CC2` ?
low bracket

Band for `CNCCN(C)Cc1nn2c(c1C1CCC(COC)(COC)CC1)CN(C(=O)C1(C(C)C)CCC1)CC2` ?
high bracket

Band for CNCCN(C)Cc1nn2c(c1C1CCC(COC)(COC)CC1)CN(C(=O)C1CCOC1(C)C)CC2 (stereo not shown) ?
high bracket

Band for `CNCCN(C)Cc1nn2c(c1C1CCC(COC)(COC)CC1)CN(C(=O)CC1CCC1)CC2` ?
middle bracket

###

- Test system: DOHH2 cells
- protocolText: DOHH2 Long Term Phenotypic Assay (7 days, Cell Titer-Glo viability)
- Assay type: cell-based
- conditionDescription: Homo sapiens, DOHH-2, 168 h, Cell Titer-Glo 2.0
measuredProperty: IC50

Kindly state the measured IC50 obtained for `COCC1(COC)CCC(c2c(CN(C)CCN)nn3c2CN(C(=O)C(C)(C)C)CC3)CC1` with DOHH2 cells.
158 nM

Kindly state the measured IC50 obtained for CNCCN(C)Cc1nn2c(c1C1CCC(COC)(COC)CC1)CN(C(=O)C(C)C(F)(F)F)CC2 (stereo not shown) with DOHH2 cells.
71 nM

Kindly state the measured IC50 obtained for `CNCCN(C)Cc1nn2c(c1C1CCC(COC)(COC)CC1)CN(C(=O)C13CC(C1)C3)CC2` with DOHH2 cells.
103 nM

Kindly state the measured IC50 obtained for `CNCCN(C)Cc1nn2c(c1C1CCC(COC)(COC)CC1)CN(C(=O)C1CC(C)(C)C1)CC2` with DOHH2 cells.
108 nM

Kindly state the measured IC50 obtained for `CNCCN(C)Cc1nn2c(c1C1CCC(COC)(COC)CC1)CN(C(=O)CC1CCOCC1)CC2` with DOHH2 cells.
198 nM

Kindly state the measured IC50 obtained for `CNCCN(C)Cc1nn2c(c1C1CCC(COC)(COC)CC1)CN(C(=O)C1(C#N)CCC1)CC2` with DOHH2 cells.
91 nM

Kindly state the measured IC50 obtained for `CNCCN(C)Cc1nn2c(c1C1CCC(COC)(COC)CC1)CN(C(=O)C(C)(C)OC)CC2` with DOHH2 cells.
474 nM

Kindly state the measured IC50 obtained for `CNCCN(C)Cc1nn2c(c1C1CCC(COC)(COC)CC1)CN(C(=O)C13CC(C)(C1)C3)CC2` with DOHH2 cells.
67 nM

Kindly state the measured IC50 obtained for `CNCCN(C)Cc1nn2c(c1C1CCC(COC)(COC)CC1)CN(C(=O)C1CCC1)CC2` with DOHH2 cells.
66 nM

Kindly state the measured IC50 obtained for `COCC1(COC)CCC(c2c(CN(C)CCN)nn3c2CN(C(=O)C2CCCC2)CC3)CC1` with DOHH2 cells.
180 nM

Kindly state the measured IC50 obtained for `COCC1(COC)CCC(c2c(CN(C)CCN)nn3c2CN(C(=O)C2(F)CC2)CC3)CC1` with DOHH2 cells.
187 nM

Kindly state the measured IC50 obtained for CNCCN(C)Cc1nn2c(c1C1CCC(COC)(COC)CC1)CN(C(=O)C1CC(C)(O)C1)CC2 (stereo not shown) with DOHH2 cells.
1440 nM

Kindly state the measured IC50 obtained for `CNCCN(C)Cc1nn2c(c1C1CCC(COC)(COC)CC1)CN(C(=O)C(C)(C)C)CC2` with DOHH2 cells.
67 nM

Kindly state the measured IC50 obtained for CNCCN(C)Cc1nn2c(c1C1CCC(COC)(COC)CC1)CN(C(=O)C1CC(C(F)F)C1)CC2 (stereo not shown) with DOHH2 cells.
150 nM

Kindly state the measured IC50 obtained for `CNCCN(C)Cc1nn2c(c1C1CCC(COC)(COC)CC1)CN(C(=O)C1(C(C)(F)F)COC1)CC2` with DOHH2 cells.
147 nM

Kindly state the measured IC50 obtained for `COCC1(COC)CCC(c2c(CN(C)CCN)nn3c2CN(C(=O)C2CCC(F)(F)CC2)CC3)CC1` with DOHH2 cells.
171 nM

Kindly state the measured IC50 obtained for `CNCCN(C)Cc1nn2c(c1C1CCC(COC)(COC)CC1)CN(C(=O)C(C)C)CC2` with DOHH2 cells.
103 nM

Kindly state the measured IC50 obtained for `COCC1(COC)CCC(c2c(CN(C)CCN)nn3c2CN(C(=O)C2(F)CCC2)CC3)CC1` with DOHH2 cells.
166 nM

Kindly state the measured IC50 obtained for `CNCCN(C)Cc1nn2c(c1C1CCC(COC)(COC)CC1)CN(C(=O)C(C)(C)COC)CC2` with DOHH2 cells.
293 nM

Kindly state the measured IC50 obtained for `COCC1(COC)CCC(c2c(CN(C)CCN)nn3c2CN(C(=O)C2(C(F)(F)F)CC2)CC3)CC1` with DOHH2 cells.
288 nM

Kindly state the measured IC50 obtained for COCC1(COC)CCC(c2c(CN(C)CCN)nn3c2CN(C(=O)C2CC(C(F)(F)F)C2)CC3)CC1 (stereo not shown) with DOHH2 cells.
76 nM

Kindly state the measured IC50 obtained for `CNCCN(C)Cc1nn2c(c1C1CCC(COC)(COC)CC1)CN(C(=O)C1CCOCC1)CC2` with DOHH2 cells.
206 nM

Kindly state the measured IC50 obtained for `COCC1(COC)CCC(c2c(CN(C)CCN)nn3c2CN(C(=O)C(C)(C)C(F)(F)F)CC3)CC1` with DOHH2 cells.
195 nM

Kindly state the measured IC50 obtained for CNCCN(C)Cc1nn2c(c1C1CCC(COC)(COC)CC1)CN(C(=O)C(C)COC)CC2 (stereo not shown) with DOHH2 cells.
310 nM

Kindly state the measured IC50 obtained for CNCCN(C)Cc1nn2c(c1C1CCC(COC)(COC)CC1)CN(C(=O)C1(C)CCCO1)CC2 (stereo not shown) with DOHH2 cells.
170 nM
